Origin of measurements: patent US11969476B2

experiment: Cytotoxicity to mammalian cells; conditions: human, 293T cells, Cytotox CC50, concentration at which 50% cytotoxicity of mammalian cells is observed

- compound: "CC(C)(O/N=C(\\C(=O)N[C@@H]1C(=O)N2C(C(=O)[O-])=C(C[n+]3ccccc3)CS[C@H]12)c1csc(N)n1)C(=O)O [Ceftazidime]"
  CC50: "550 µg/mL"
